B1: H2-Kb / B14 (parent)
chain 1: GEQVEQRPPHLSVREGDSAVIICTYTDPNSYYFFWYKQEPGAGLQLLMKVFSSTEINEGQGFTVLLNKKDKQLSLNLTAAHPGDSAVYFCAVSARGNMGYKLTFGTGTSLLVDP
chain 2: GGIITQTPKFLIGQEGQKLTLKCQQNFNHDTMYWYRQDSGKGLRLIYYSITENDLQKGDLSEGYDASREKKSSFSLTVTSAQKNEMAVFLCASSMGQGASDYTFGSGTRLLVI
chain 3: not shown
chain 4: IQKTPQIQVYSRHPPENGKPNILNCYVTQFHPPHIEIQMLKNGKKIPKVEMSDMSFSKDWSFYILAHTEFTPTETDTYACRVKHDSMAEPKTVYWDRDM
chain 5: SIINFEKL

Variants of: B1
Test: % of reporter cells activated (NFAT-GFP), raw; note: test concentration or dose not given here
Details: with B14; scale: % of reporter cells activated
For each record, write down the corresponding ratio to parent.
One number for each entry.

Solved entries:
>>> experimentalresult("chain 5 I3C")
1.96
>>> experimentalresult("chain 5 S1W")
1.04
>>> experimentalresult("chain 5 I2Q")
1.07
>>> experimentalresult("chain 5 S1Y")
1.33
>>> experimentalresult("chain 5 I3L")
1.33
>>> experimentalresult("chain 5 K7A")
0.907
>>> experimentalresult("chain 5 F5N")
1.1
>>> experimentalresult("chain 5 I2G")
0.907
>>> experimentalresult("chain 5 E6F")
1.47
>>> experimentalresult("chain 5 L8D")
1.24

Consider the following items and state reported ratio to parent for each.
1. chain 5 I3P
2. chain 5 K7G
3. chain 5 L8R

[2, 0.489, 0.978]

Look at each variant and report its ratio to parent.
1. chain 5 S1M
2. chain 5 K7L

1: 0.444; 2: 1.56

State recorded ratio to parent for all listed variants.
1. chain 5 K7N
2. chain 5 I3T

0.707
1.47
